Cited source for all entries: the supplement of paper PMC8728848

# assay system: Gal(b1-4)GlcNAc(b1-3)Gal(b1-4)GlcNAc(b1-3)Gal(b1-4)GlcNAc(b1-3)Gal(b1-4)GlcNAc(b1-2)Man(a1-3)[Gal(b1-4)GlcNAc(b1-3)Gal(b1-4)GlcNAc(b1-3)Gal(b1-4)GlcNAc(b1-3)Gal(b1-4)GlcNAc(b1-2)Man(a1-6)]Man(b1-4)GlcNAc(b1-4)GlcNAc
# assay: glycan array binding signal (z-score within array); higher = stronger binding
# experimental context: glycan notation: IUPAC condensed, linker removed
Only a selection was taken, and the strongest signals are over-represented in it overall.
Binary call on glycan array binding signal (z-score): Met from 3 upward, Not met beneath that.

binder: FGFR2-Fc (protein) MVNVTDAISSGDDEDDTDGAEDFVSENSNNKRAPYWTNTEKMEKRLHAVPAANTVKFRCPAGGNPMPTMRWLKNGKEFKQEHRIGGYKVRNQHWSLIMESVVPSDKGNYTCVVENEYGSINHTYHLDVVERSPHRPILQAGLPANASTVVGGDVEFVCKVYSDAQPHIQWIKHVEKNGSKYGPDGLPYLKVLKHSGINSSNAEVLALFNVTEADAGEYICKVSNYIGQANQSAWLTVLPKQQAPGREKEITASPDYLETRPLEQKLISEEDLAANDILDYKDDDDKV
group label: Not met
//
binder: Gal 1 (Mus musculus), P16045 (protein) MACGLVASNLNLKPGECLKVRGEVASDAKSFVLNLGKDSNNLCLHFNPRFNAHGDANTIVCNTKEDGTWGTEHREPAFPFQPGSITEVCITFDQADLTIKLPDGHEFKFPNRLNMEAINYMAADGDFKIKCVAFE
group label: Not met
//
binder: Gal 12 (Homo sapiens), Q96DT0 (protein) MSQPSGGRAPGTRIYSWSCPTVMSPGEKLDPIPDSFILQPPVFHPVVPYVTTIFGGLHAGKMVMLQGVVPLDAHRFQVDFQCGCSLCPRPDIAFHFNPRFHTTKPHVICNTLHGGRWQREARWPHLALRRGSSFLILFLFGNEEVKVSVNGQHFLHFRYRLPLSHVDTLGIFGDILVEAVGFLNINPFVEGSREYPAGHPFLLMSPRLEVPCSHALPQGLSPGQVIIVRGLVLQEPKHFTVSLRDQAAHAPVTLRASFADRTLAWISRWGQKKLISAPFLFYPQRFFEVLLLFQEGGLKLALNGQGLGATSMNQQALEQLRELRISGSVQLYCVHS
group label: Not met
//
binder: CFEM-PPm (Pichia pastoris), F2QPV1 (protein) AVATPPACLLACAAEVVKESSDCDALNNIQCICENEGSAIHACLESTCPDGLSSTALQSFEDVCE
group label: Not met
//
binder: Sp8391B-bot-388-20-388 (Bacteroides ovatus) (protein) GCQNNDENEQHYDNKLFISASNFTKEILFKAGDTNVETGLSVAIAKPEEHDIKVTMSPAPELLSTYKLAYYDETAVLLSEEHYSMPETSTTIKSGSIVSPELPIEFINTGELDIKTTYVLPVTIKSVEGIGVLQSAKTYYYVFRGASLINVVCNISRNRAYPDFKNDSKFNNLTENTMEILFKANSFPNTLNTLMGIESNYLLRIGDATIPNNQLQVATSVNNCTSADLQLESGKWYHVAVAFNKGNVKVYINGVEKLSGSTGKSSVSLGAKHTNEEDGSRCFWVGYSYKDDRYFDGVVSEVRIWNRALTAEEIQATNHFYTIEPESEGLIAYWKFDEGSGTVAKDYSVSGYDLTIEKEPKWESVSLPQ
group label: Not met
//
binder: rCnSL-A (Clitocybe nebularis) (protein) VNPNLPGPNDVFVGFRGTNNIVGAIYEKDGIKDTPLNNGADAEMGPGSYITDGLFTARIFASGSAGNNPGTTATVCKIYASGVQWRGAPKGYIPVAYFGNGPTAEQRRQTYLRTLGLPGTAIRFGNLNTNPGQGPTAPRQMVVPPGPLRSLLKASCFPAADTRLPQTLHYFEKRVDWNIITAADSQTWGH
group label: Met
//
binder: TIM1 (protein) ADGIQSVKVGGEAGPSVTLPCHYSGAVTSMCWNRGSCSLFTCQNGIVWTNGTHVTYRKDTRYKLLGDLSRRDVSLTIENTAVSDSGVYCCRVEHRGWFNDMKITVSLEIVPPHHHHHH
group label: Not met
//
binder: rMpL (Macrolepiota procera) (protein) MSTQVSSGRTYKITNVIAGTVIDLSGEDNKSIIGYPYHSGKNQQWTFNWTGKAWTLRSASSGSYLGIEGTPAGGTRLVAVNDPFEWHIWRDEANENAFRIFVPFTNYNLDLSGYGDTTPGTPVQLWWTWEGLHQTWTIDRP
group label: Met
//
binder: LBL-152 (Laetiporus bicolor), B0D650 (protein) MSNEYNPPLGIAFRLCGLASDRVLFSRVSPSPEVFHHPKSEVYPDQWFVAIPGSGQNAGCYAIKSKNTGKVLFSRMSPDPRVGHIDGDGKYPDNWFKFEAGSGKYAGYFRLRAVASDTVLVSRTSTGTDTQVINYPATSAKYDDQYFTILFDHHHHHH
group label: Met
//
binder: AT1G15820(NC) (Arabidopsis thaliana) (protein) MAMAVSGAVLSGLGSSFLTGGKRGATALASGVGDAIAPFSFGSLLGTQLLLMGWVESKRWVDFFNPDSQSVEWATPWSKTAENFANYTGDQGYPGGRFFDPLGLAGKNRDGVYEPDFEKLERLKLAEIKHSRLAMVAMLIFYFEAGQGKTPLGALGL
group label: Not met
//
binder: DrGal9 (Danio rerio) (protein) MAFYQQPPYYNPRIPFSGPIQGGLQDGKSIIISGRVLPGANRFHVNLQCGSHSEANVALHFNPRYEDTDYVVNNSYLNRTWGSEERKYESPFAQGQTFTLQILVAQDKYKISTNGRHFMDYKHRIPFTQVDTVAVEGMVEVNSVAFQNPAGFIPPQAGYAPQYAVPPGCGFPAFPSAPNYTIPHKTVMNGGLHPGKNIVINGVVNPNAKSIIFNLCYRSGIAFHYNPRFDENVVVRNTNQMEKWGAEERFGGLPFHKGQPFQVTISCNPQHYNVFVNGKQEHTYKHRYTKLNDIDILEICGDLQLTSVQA
group label: Met
